# target under test: recombinant full-length MPS1 p.C604W (Homo sapiens, UniProt P33981, C604W)
# Construct: made in house; host or cells: Sf9 insect cells (baculovirus, modified pFastBac1)
# Sequence (P33981 1-857 C604W): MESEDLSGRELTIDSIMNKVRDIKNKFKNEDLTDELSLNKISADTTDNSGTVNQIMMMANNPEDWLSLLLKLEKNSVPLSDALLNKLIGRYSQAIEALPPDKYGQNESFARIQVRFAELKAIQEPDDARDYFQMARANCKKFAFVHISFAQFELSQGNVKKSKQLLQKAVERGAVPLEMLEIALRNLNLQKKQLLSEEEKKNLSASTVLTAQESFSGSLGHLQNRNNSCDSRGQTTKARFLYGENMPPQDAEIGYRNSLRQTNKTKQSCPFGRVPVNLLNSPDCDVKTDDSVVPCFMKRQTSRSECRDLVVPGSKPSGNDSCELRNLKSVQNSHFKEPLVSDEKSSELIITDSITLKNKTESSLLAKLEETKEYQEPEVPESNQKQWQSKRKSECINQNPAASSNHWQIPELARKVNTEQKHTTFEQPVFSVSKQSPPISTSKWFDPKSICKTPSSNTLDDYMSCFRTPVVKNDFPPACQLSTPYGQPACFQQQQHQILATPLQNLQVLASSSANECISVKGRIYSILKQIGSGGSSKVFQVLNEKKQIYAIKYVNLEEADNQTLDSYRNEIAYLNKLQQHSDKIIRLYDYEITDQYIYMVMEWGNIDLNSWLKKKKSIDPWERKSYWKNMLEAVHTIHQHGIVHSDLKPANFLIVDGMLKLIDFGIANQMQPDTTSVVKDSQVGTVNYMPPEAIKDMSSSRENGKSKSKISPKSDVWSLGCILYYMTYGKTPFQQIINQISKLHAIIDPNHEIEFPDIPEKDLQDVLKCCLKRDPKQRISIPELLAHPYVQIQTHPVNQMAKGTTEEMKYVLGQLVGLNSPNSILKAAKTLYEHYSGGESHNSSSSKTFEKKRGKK
# experimental details: Recombinant MPS1 kinase assay (electrophoretic mobility shift), p.C604W
# Format: biochemical
# condition: IC50 values at 1 mM ATP, C604W; 1 mM ATP; mean ± SD, quadruplicate
# Experimental: For high ATP concentration assays, 1 mM ATP was used. An ECHO® 550 (Labcyte Inc) acoustic dispenser was used to generate duplicate 8 point dilution curves directly into 384-well low-volume polystyrene assay plates (Corning Life Sciences). The reaction was carried out for 90 min at room temperature.
experimental readout: IC50 (µM)
Numbers only, in µM.

{"molecule": "Cn1cc(-c2ccc(Nc3ccc(C#N)c(NC4CCCCC4)n3)cc2OCC#N)cn1 [ONCOII]", "target under test": "recombinant full-length MPS1 p.C604W (Homo sapiens, UniProt P33981, C604W)", "IC50 / µM": 8.3}

Let us move to another entry and its IC50.
If you can, please state the reported IC50 value of Cc1ncc(-c2ccc(Nc3cc4c(cn3)cc(-c3cnn(C)c3)n4C(=O)OC(C)C)cc2)n1C [Compound 2] . 0.0163

Source listed as patent US20180112258A1.
